So I've got a bunch of compounds here, and I need their KL values.
Test system: Atrial natriuretic peptide receptor 1 (Oryctolagus cuniculus)
Test: Binding affinity towards the low-affinity site atrionatriuretic peptide receptor 1 of rabbit adrenal membrane
The reply should be a number in µM, with the unit left off.

Query :: Provide measured KL value, entry: CC[C@H](C)[C@@H]1NC(=O)[C@H](CCCN=C(N)N)NC(=O)[C@@H](CC(=O)O)NC(=O)[C@H]([C@@H](C)CC)NC(=O)[C@@H](CCCN=C(N)N)NC(=O)CNC(=O)CNC(=O)[C@@H](Cc2ccccc2)NC(=O)C(C)NC(=O)[C@@H](NC(=O)[C@H](CO)NC(=O)[C@@H](N)CO)CSSC[C@@H](C(=O)N2C[C@@H](C(=O)N[C@H](CCCN=C(N)N)C(=O)O)Cc3ccccc32)NC1=O (stereo in doubt)
Result :: 0.54

Query :: Provide measured KL value, entry: CC[C@H](C)[C@@H]1NC(=O)[C@@H](CCCN=C(N)N)NC(=O)CNC(=O)CNC(=O)[C@@H](Cc2ccccc2)NC(=O)[C@@H](C)NC(=O)[C@H](NC(=O)[C@H](CO)NC(=O)[C@@H](N)CO)CSSC[C@H](C(=O)N[C@H](Cc2ccccc2)C(=O)N[C@H](CCCN=C(N)N)C(=O)O)NC(=O)[C@@H]([C@@H](C)CC)NC(=O)[C@H](C)NC(=O)[C@@H](CC(=O)O)NC1=O
Result :: 7.1

----------
Assay: Binding affinity towards low-affinity site of Atrial natriuretic peptide receptor 1 of rabbit adrenal membrane
Type: tissue-based
So I've got a bunch of molecules here, and I need their KL values.
The reply should be a number in µM, with the unit left off.

Query :: Provide measured KL value, entry: CC[C@H](C)[C@@H]1NC(=O)[C@H](CCCN=C(N)N)NC(=O)[C@@H](CC(=O)O)NC(=O)[C@H]([C@@H](C)CC)NC(=O)[C@@H](CCCN=C(N)N)NC(=O)CNC(=O)CNC(=O)[C@@H](Cc2ccccc2)NC(=O)CNC(=O)[C@@H](NC(=O)[C@H](CO)NC(=O)[C@@H](N)CO)CSSC[C@@H](C(=O)N[C@H](Cc2ccccc2)C(=O)N[C@@H](CCCCN)C(=O)O)NC1=O
Result :: 5.9

Query :: Provide measured KL value, entry: CC[C@H](C)[C@@H]1NC(=O)[C@@H](CCCN=C(N)N)NC(=O)CNC(=O)CNC(=O)[C@@H](Cc2ccc(OC)c(OC)c2)NC(=O)C(C)NC(=O)[C@H](NC(=O)[C@H](CO)NC(=O)[C@@H](N)CO)CSSC[C@H](C(=O)N[C@H](Cc2ccccc2)C(=O)N[C@H](CCCN=C(N)N)C(=O)O)NC(=O)[C@@H]([C@@H](C)CC)NC(=O)[C@H](CCCN=C(N)N)NC(=O)[C@@H](CC(=O)O)NC1=O (stereo in doubt)
Result :: 13

Query :: Provide measured KL value, entry: CC[C@H](C)[C@@H]1NC(=O)[C@@H](CCCN=C(N)N)NC(=O)Cc2ccc(cc2)NC(=O)Cc2ccc(cc2)NC(=O)[C@@H](Cc2ccccc2)NC(=O)C(C)NC(=O)[C@H](NC(=O)[C@H](CO)NC(=O)[C@@H](N)CO)CSSC[C@H](C(=O)N[C@H](Cc2ccccc2)C(=O)N[C@H](CCCN=C(N)N)C(=O)O)NC(=O)[C@@H]([C@@H](C)CC)NC(=O)[C@H](CCCN=C(N)N)NC(=O)[C@@H](CC(=O)O)NC1=O (stereo in doubt)
Result :: 1.4
